assay: Oral bioavailability in BCRP knockout Sprague-Dawley rat at 5 mg/kg by LC-MS/MS analysis; assay type: ADME, organism-based; settings: in vivo
quantity_kind: bioavailability

INSERT INTO assay_data (smiles_input, obs_value) VALUES
  ('CC(=O)O[C@H]1C(=O)[C@@]2(C)[C@H]([C@H](OC(=O)c3ccccc3)[C@]3(O)C[C@H](OC(=O)[C@H](O)[C@@H](NC(=O)c4ccccc4)c4ccccc4)C(C)=C1C3(C)C)[C@]1(OC(C)=O)CO[C@@H]1C[C@@H]2O', '13%');

* * *

experiment: Cmax in MDR1A knockout Sprague-Dawley rat at 10 mg/kg, po by LC-MS/MS analysis; assay type: ADME, organism-based; design: dose 10 mg/kg, route oral; conditions: in vivo
quantity_kind: Cmax (ng/mL)

INSERT INTO measurements (molecule, unit_label, obs_value) VALUES
  ('CN(C)C(=O)C(CCN1CCC(O)(c2ccc(Cl)cc2)CC1)(c1ccccc1)c1ccccc1 [LOPERAMIDE]', 'ng/mL', 226);

* * *

assay: Drug excretion in bile duct-cannulated MRP2 knockout Sprague-Dawley rat feces at 1 mg/kg, iv up to 24 hrs; assay type: ADME, organism-based; parameters: dose 1 mg/kg, route intravenous; details: faeces, read-out: Drug excretion
quantity_kind: dose excreted at 24 h (%)

INSERT INTO assay_data (compound, quantity_kind, obs_value) VALUES
  ('CC(=O)O[C@H]1C(=O)[C@@]2(C)[C@H]([C@H](OC(=O)c3ccccc3)[C@]3(O)C[C@H](OC(=O)[C@H](O)[C@@H](NC(=O)c4ccccc4)c4ccccc4)C(C)=C1C3(C)C)[C@]1(OC(C)=O)CO[C@@H]1C[C@@H]2O [PACLITAXEL]', 'dose excreted at 24 h', 2.8);

* * *

experiment: Oral bioavailability in MRP2 knockout Sprague-Dawley rat at 20 mg/kg by LC-MS/MS analysis; type: ADME, organism-based; details: in vivo
quantity_kind: bioavailability (%)

INSERT INTO results (smiles_input, quantity_kind, obs_value) VALUES
  ('O=C(O)c1cc(/N=N/c2ccc(S(=O)(=O)Nc3ccccn3)cc2)ccc1O', 'bioavailability', 4);

* * *

assay: Oral bioavailability in MDR1A knockout Sprague-Dawley rat at 20 mg/kg by LC-MS/MS analysis; format: ADME, organism-based; conditions: in vivo
quantity_kind: bioavailability (%)

INSERT INTO measurements (compound, unit_label, obs_value) VALUES
  ('O=C(O)c1cc(/N=N/c2ccc(S(=O)(=O)Nc3ccccn3)cc2)ccc1O [SULFASALAZINE]', '%', 2.8);

* * *

assay: Clearance in MDR1A knockout Sprague-Dawley rat at 5 mg/kg, iv by LC-MS/MS analysis; type: ADME, organism-based; design: dose 5 mg/kg, route intravenous; details: in vivo
quantity_kind: clearance (mL/min/kg)

INSERT INTO assay_data (smiles_input, obs_value) VALUES
  ('O=C(O)c1cc(/N=N/c2ccc(S(=O)(=O)Nc3ccccn3)cc2)ccc1O', 13.5);

* * *

experiment: Half life in MDR1A knockout Sprague-Dawley rat treated with sulfasalazine at 20 mg/kg, po by LC-MS/MS analysis; assay type: ADME, organism-based; set-up: dose 20 mg/kg, route oral; conditions: in vivo
quantity_kind: half-life (h)

INSERT INTO measurements (smiles_input, quantity_kind, obs_value) VALUES
  ('Nc1ccc(S(=O)(=O)Nc2ccccn2)cc1', 'half-life', 1.3);
